# Species on record: Rattus norvegicus
# experiment_summary: Open TG-GATES - Regimen: Single
# Type: toxicity, organism-based, Sprague-Dawley
# Design: regimen Single, gender Male, age 6 weeks
# experimental_setup: in vivo, po, 10 mg/kg, 3 h, tissue Plasma, route gavage, dose level Low
assay_readout: GLC (mg/dL)
Numbers only, in mg/dL.

Field: example entries. Status: answers known.
compound: CN(C)CCN(Cc1cccs1)c1ccccn1
GLC, mg/dL: 171.6

compound: CN(C)CCCN1c2ccccc2CCc2ccccc21
GLC, mg/dL: 187.4

compound: CN(C)CCCN1c2ccccc2CCc2ccc(Cl)cc21
GLC, mg/dL: 189

Your task in this section: give GLC for each listed record.
1. CC1=C(/C=C/C(C)=C/C=C/C(C)=C/CO)C(C)(C)CCC1
2. CC(C)OC(=O)C(C)(C)Oc1ccc(C(=O)c2ccc(Cl)cc2)cc1 [FENOFIBRATE]

[171.6, 178.4]
